Method Description: NCI Yeast Anticancer Drug Screen. Data for the mlh1 rad18 strain (AID 175)
Measurement Context: S. cerevisiae mlh1 rad18 strain growth inhibition; at 50.0 µM; active compounds read high
This is part of a sample that, as a whole, favours compounds with a hit. Of some 79,000 tested, about 15% had one in any assay.
# key: entry, value: growth inhibition
Dear colleague, please return just the value in %, with no unit written.

S=C(S)NN1CCOCC1; 86.8
CC1=C(C)Cc2c(O)ccc(O)c2C1; 93.2
CC(/C=C/c1ccc2c(c1)OCO2)[N+](=O)[O-] (stereo not drawn); 99.4
CN(C)CCn1c2c3ccccc3ccc2c2oc(=O)c3ccccc3c21; 82.7
S=c1[nH]nc(Nc2ccc(Cl)cc2)s1; 92.6

Name the recorded growth inhibition of the molecule listed here: `CCN(CC)CCN1C(=O)c2cccc3cc(OC)cc(c23)C1=O`
-14.2

Name the recorded growth inhibition of the molecule listed here: `CCC(=O)Oc1c(Cl)cc(Cl)c2ccccc12`
10.9

Name the recorded growth inhibition of the molecule listed here: `COc1ccc(NC(=S)N/N=C(\c2ccccc2)c2ccccn2)cc1`
83.7

* * *

# key: entry, value: growth inhibition
Method Description: NCI Yeast Anticancer Drug Screen. Data for the cln2 rad14 strain (AID 165);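 note: 0% = growth equal to vehicle treated cultures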
Measurement Context: S. cerevisiae cln2 rad14 strain, at 5.0 µM (retest, dose inferred, filed as 0.5), active compounds read high
Method: Growth inhibition of yeast strains with defined genetic alterations is measured as a screen for potential anti-cancer activity. Selected strains with alterations in DNA damage repair or cell cycle control were exposed to compounds and growth inhibition was measured relative to vehicle treated controls. The strain used in this assay is cln2 rad14
The panel holds about 79,000 compounds, 15% with a hit somewhere; the sample as a whole holds those more often.
Dear colleague, please return just the value in %, with no unit written.

Sample answers from the record:
CN(C)c1ccc(Sc2ccc3nc(N)nc(N)c3c2)cc1; 24
O=C(COC(=O)c1cc(O)c(O)c(O)c1)c1ccc(-c2ccccc2)cc1; -84
CN(CCc1ccccn1)c1ccc2c(c1)Cc1ccccc1-2; 0

Name the recorded growth inhibition of the compound listed here: `c1ccc2c(c1)sc1nc3ccncc3nc12`
-50

Name the recorded growth inhibition of the compound listed here: `CCN(CC)CCC(=O)c1ccc(Oc2ccc(F)cc2)cc1`
21

Name the recorded growth inhibition of the compound listed here: O=C1C2C=CC1C1C(=O)OC(=O)C21 (configuration not stated)
61

Name the recorded growth inhibition of the compound listed here: C=CCC1=C(C)C(OC(=O)/C=C/c2ccccc2)CC1=O (configuration not stated)
17

Name the recorded growth inhibition of the compound listed here: `CCCCCCCCCCCC1=C(O)C(=O)C=C(O)C1=O`
-11

Name the recorded growth inhibition of the compound listed here: `O=C(O)c1cccc(-c2c3ccc(=O)cc-3oc3cc(O)ccc23)c1`
33

Name the recorded growth inhibition of the compound listed here: `CCCCCCCCCCC(=O)Cl`
36

Name the recorded growth inhibition of the compound listed here: `S=C(N/N=C/c1ccccn1)Nc1ccc(Cl)cc1`
38

Name the recorded growth inhibition of the compound listed here: `Brc1ccc(-c2cc3c(cc2C2SCCS2)OCO3)cc1`
9

* * *

Method Description: NCI Yeast Anticancer Drug Screen. Data for the mec2-1 strain (AID 157)
Measurement Context: S. cerevisiae mec2-1 strain, at 50.0 µM (retest, dose inferred, filed as 5.0)
The panel holds about 79,000 compounds, 15% with a hit somewhere; the sample as a whole holds those more often. Calls of active or inactive are those of the source. Rule as the data show it: active = growth inhibition above about 70%; inactive = the rest.
Field 'call' accepts YES (active), NO (inactive)

Solved entries:
O=C(c1cc(Br)ccc1O)c1cc(Br)ccc1O; YES
CC1OCC2OC(C)OC(C3C4=C(CC(C)(C)CC4=O)OC4=C3C(=O)CC(C)(C)C4)C2O1 (stereo unspecified); NO
CC(C)[N+]([O-])(CCCNc1c2ccccc2nc2cccc([N+](=O)[O-])c12)C(C)C; YES
CCNc1nnc(CSc2nc(-c3ccccc3)c(-c3ccccc3)[nH]2)s1; YES
C=C(CN(C)C)C(=O)c1cc(C)ccc1C; YES
[N-]=[N+]=NC1=C(c2ccccn2)C(=O)c2cccc3cccc1c23; NO

API: the following record is the query input.
Which outcome was entered for the compound `CC(C)(C)c1nc2c(o1)C(=O)c1ccccc1C2=O` in this test?
YES
